Just for reference, PubChem BioAssay (NCI) is where these values come from.

- Test system: LOX IMVI melanoma
- method summary: NCI tumour cell line growth inhibition, 48 h
Hi there, I'd appreciate the recorded TGI for every entry that follows.
Write the value in µM as a bare number.

query: Field request: TGI | item: COc1cc2c(cc1OC)[C@H]1CN3CCC[C@H]3C=C1c1ccc(OC)c(O)c1-2
result: 0.000604

query: Field request: TGI | item: COc1cc2c(Nc3cc(Cl)c(OC)c(Cl)c3)c(C#N)cnc2cc1OCCCN1CCN(C)CC1
result: 2.43

query: Field request: TGI | item: CCOC(=O)C1(C(=O)OCC)COS(=O)OC1
result: 28.4

query: Field request: TGI | item: Cc1cc(N/N=C/c2ccccn2)nc2ccccc12
result: 10.9

query: Field request: TGI | item: O=C(Cc1nc2c3c(ccc2[nH]c1=O)C(=O)c1ccccc1C3=O)C(=O)Nc1ccccc1[N+](=O)[O-]
result: 44.8

query: Field request: TGI | item: N#CCCN1C/C(=C/c2ccc(Br)cc2)C(=O)/C(=C/c2ccc(Br)cc2)C1
result: 1.76

query: Field request: TGI | item: CC(O)CCCOC(c1ccccc1)(c1ccccc1)c1ccccc1 (stereo unspecified)
result: 30.4

query: Field request: TGI | item: CC(C)(C)[Si](C)(C)OC1[C@@H](CNC(=O)NC(=O)CCl)O[C@@H](n2cnc3c(N)ncnc32)[C@H]1O[Si](C)(C)C(C)(C)C (stereo partly specified)
result: 0.382

query: Field request: TGI | item: Cn1cc(-c2csc(-c3cn(CCCCN4CCCCC4)c4ccccc34)n2)c2cccnc21
result: 3.21

query: Field request: TGI | item: CCCc1cc(=O)n2c(C(=O)Nc3ccc(Cl)cc3C)c(C(=O)Nc3ccc(F)cc3)sc2n1
result: 19.9

query: Field request: TGI | item: COc1ccc(-c2cnnn2-c2nonc2-n2cccc2)cc1
result: 19

###

- Test system: NCI-H226 lung
- method summary: NCI tumour cell line growth inhibition, 48 h
Hi there, I'd appreciate the recorded GI50 for every entry that follows.

query: Field request: GI50 | item: C=CC(=O)N1CN(C(=O)C=C)CN(C(=O)C=C)C1
result: 5870 nM

query: Field request: GI50 | item: COc1cc2c(Nc3cc(Cl)c(OC)c(Cl)c3)c(C#N)cnc2cc1OCCCN1CCN(C)CC1
result: 3390 nM

query: Field request: GI50 | item: O=C(NCc1ccc(Cn2c(=O)sn(-c3ccccc3)c2=O)cc1)OCc1ccc2cccc(O)c2n1
result: 1270 nM

query: Field request: GI50 | item: COc1ccc(-c2nc(-c3cc(OC)cc(OC)c3)[nH]c2-c2ccc(OC)cc2)cc1
result: 5470 nM

query: Field request: GI50 | item: CC(C)(C)[Si](C)(C)OC1[C@@H](CNC(=O)NC(=O)CCl)O[C@@H](n2cnc3c(N)ncnc32)[C@H]1O[Si](C)(C)C(C)(C)C (some centres not stated)
result: 956 nM

query: Field request: GI50 | item: COc1cc2c(cc1O)CCN[C@]21CS[C@@H]2c3c(OC(C)=O)c(C)c4c(c3[C@H](COC1=O)N1[C@@H]2[C@H]2c3c(cc(C)c(OC)c3O)C[C@@H]([C@@H]1O)N2C)OCO4
result: 3.13 nM

query: Field request: GI50 | item: Cc1ccc(OCCOCCOCCOCCOc2ccc(C)n(O)c2=S)c(=S)n1O
result: < 29.1 nM

query: Field request: GI50 | item: Nc1ccccc1O.O.O=C(O)C1[O][Sb][O]C1C(=O)O (configuration not stated)
result: > 100000 nM

query: Field request: GI50 | item: c1coc(-c2c3ccc(=[N+]4CCCCC4)cc-3oc3cc(N4CCCCC4)ccc23)c1
result: 138 nM

query: Field request: GI50 | item: Nc1cc(Br)c(-c2nnc(CCC(=O)c3nc4ccccc4[nH]3)o2)c(Br)c1
result: 22600 nM

query: Field request: GI50 | item: COC(=O)c1cc2c(o1)-c1nccc3c1c(nc1ccccc13)C2=O
result: 8080 nM

query: Field request: GI50 | item: COc1ccc(-c2cnnn2-c2nonc2-n2cccc2)cc1
result: 705 nM
